Test system: CAKI-1 renal
protocol-description: NCI tumour cell line growth inhibition, 48 h
Where a SMILES comes first, the peptide text is derived from it. The star is where a group is joined. Cbz = O=C(OCc1ccccc1)*
property: TGI

>>> result("O=C(Nc1n[nH]c2nc(-c3ccc(O)cc3)c(Br)cc12)C1CC1")
"16.5 µM"
>>> result("Cc1cc(C#N)c(Nc2ccc(F)cc2[N+](=O)[O-])s1")
"> 100 µM"
>>> result("c1ccc(SCCc2ccncc2)cc1")
"> 100 µM"
>>> result("O=C1/C(=C/C=C/c2ccccc2)N=C(c2ccccc2)N1c1ccc(S(=O)(=O)Nc2nccs2)cc1")
"> 100 µM"
>>> result("CCCCCCCC(=O)OCC1OC(n2cc(F)c(=O)[nH]c2=O)C(N)C(O)C1O (configuration not stated)")
"> 100 µM"
>>> result("O=S(=O)(O)c1cc(S(=O)(=O)O)c2c(N=Nc3ccc(S(=O)(=O)O)c4ccccc34)c(O)ccc2c1")
"> 100 µM"
>>> result("COc1c(C)c(OC)c(C(=O)CC(C)C)c(OC)c1C")
"> 100 µM"
>>> result("CC(C)=Cc1cccc2[nH]c(O)c(N=Nc3ccc(S(N)(=O)=O)cc3)c12")
"> 25 µM"
>>> result("O=C(CCCC(=O)N/N=C/c1cc(Cl)ccc1O)N/N=C\\c1cc(Cl)ccc1O")
"> 100 µM"
>>> result("COc1ccc2nc3c(cc2c1)C(=O)CC(c1ccccc1)C3 (configuration not stated)")
"> 100 µM"
>>> result("CCOC(=O)Nc1ccc2c(c1)C(=O)N(CC)c1ccccc1O2")
"> 100 µM"
>>> result("CCOC(=O)C(NC(=O)c1cccc(Cl)c1)(Nc1ccc(S(=O)(=O)Nc2cc(C)nc(C)n2)cc1)C(F)(F)F (configuration not stated)")
"> 100 µM"
>>> result("O=C1NC(=O)C(C(c2ccc([N+](=O)[O-])cc2)C2C(=O)NC(=O)NC2=O)C(=O)N1")
"> 100 µM"
>>> result("NNC(=O)CC(=O)Nc1ccc(S(=O)(=O)c2ccc(NC(=O)CC(=O)NN)cc2)cc1")
"> 100 µM"
>>> result("CC12C3CC4C5CC(C(C53)[C@@H]1NCc1ccccc1)C42 (some centres not stated)")
"> 100 µM"
>>> result("C/C(=C\\C(C[C@](C)(O)C(O)CCC#C[Si](C)(C)C)S(=O)(=O)c1ccccc1)CC/C=C/CO[Si](C)(C)C(C)(C)C (some centres not stated)")
"33 µM"
>>> result("OCC(O)COCn1cc(Cn2ncc3c(NCc4ccccc4)ncnc32)nn1 (configuration not stated)")
"> 100 µM"
>>> result("O=C1CCCCN1")
"> 1120 µM"
>>> result("Cc1ccc(/C=N/NS(=O)(=O)c2ccccc2)cc1C")
"> 100 µM"
>>> result("C1=CC=C2NCCc3cccc(c3)CCNC3=CC=CC=CC3=NCCCCCCN=C2C=C1")
"> 100 µM"
>>> result("CCc1ccc(Cc2ccc(CC)c(NC(=O)C(=O)C3NC(=S)NC3=O)c2CC)c(CC)c1NC(=O)C(=O)C1NC(=S)NC1=O (configuration not stated)")
"> 100 µM"
>>> result("O=C(O)CCSC(=O)Nc1cccc2ccccc12")
"> 100 µM"
>>> result("COc1ccccc1/C=N/Nc1nnc2c3ccccc3c3ncccc3c2n1")
"> 100 µM"
>>> result("N#CC(C(=O)CCC(=O)Nc1cccc(C(F)(F)F)c1)c1ccccc1 (configuration not stated)")
"> 100 µM"
>>> result("COC(=O)C(CC(C)C)NC(=O)C(CCCN=C(N)N)NC(=O)OCc1ccccc1 (stereo not drawn) (Cbz-Arg-Leu-OMe; configuration not given here)")
"> 100 µM"
>>> result("O=[N+]([O-])c1ccc(N=Nc2c(Cl)cc(O)cc2Cl)cc1")
"5.79 µM"
>>> result("CC1SC2=NC3=C(c4ccccc4C3=O)C(c3ccccc3Cl)N2C1=O (configuration not stated)")
"> 100 µM"
>>> result("CCOC(=O)[C@@]1(C(C)=O)CC(C)=C(C)C[S@]1=O")
"> 100 µM"
>>> result("O=C1/C(=C/c2ccccc2)CCc2ccc([N+](=O)[O-])cc21")
"> 100 µM"
>>> result("N#CC1(C#N)[C@@H]2CCC=C(Sc3ccccc3)[C@@H]21")
"27.2 µM"
>>> result("N#Cc1ccc([N+](=O)[O-])cc1NC(N)=S")
"> 100 µM"
>>> result("COc1ccc(CNCCCN2C(=O)c3ccc4c5c(ccc(c35)C2=O)C(=O)N(CCCNCc2ccc(OC)c(OC)c2OC)C4=O)c(OC)c1OC")
"1.95 µM"
>>> result("CCN(CC)CCn1c(=O)c2cc(OC)c(OC)cc2c2ccc3cc4c(cc3c21)OCO4")
"15.1 µM"
>>> result("CO/N=C(/C(=O)Nc1c[n+](CC(=O)[O-])cs1)c1csc(N)n1")
"> 100 µM"
>>> result("CN(/N=C/c1ccccc1O)c1ccc2ccccc2n1")
"> 100 µM"
>>> result("Cc1ccc2[nH]c(C(=O)NN3C(=O)C(C)SC34CCC(C)CC4)c(-c3ccccc3)c2c1 (configuration not stated)")
"38 µM"
>>> result("O=c1oc2cc(O)ccc2c2oc3cc(O)ccc3c12")
"> 107 µM"
>>> result("Brc1ccc(C=NC23CC4CC(CC(C4)C2)C3)cc1")
"> 100 µM"
>>> result("FC(F)(F)c1nc(SCc2ccc(Cl)cc2)n[nH]1")
"> 100 µM"
>>> result("O=C(C=Nc1ccccc1S)c1ccco1")
"33.7 µM"
>>> result("CC[C@@H]1CSC(/C=C/C2OC3OC(C)(C)OC3C3OC(C)(C)OC23)=N1 (some centres not stated)")
"28.6 µM"
>>> result("CC1=C(SCCO)C(=O)c2ccccc2C1=O")
"28.8 µM"
